ASSAYED TARGET: T1, hTRF2-DBD dm (A471S/A484S) (Homo sapiens, UniProt Q15554 SEQ:1-63)
T1 chain: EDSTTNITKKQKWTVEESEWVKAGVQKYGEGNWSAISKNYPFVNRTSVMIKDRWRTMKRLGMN
PROTOCOL DETAILS: SPR; pH 6.8, 180 mM KCl, 293 K
CONDITION INFO: tags: N-terminal Met added; untagged, E. coli BL21(DE3) pET23b; label: biotin (13mer on SA chip)
// reported Kd per item
Unit µM implied. Number only.

Guide cases for Kd, answers given:
* T3G (dsDNA) DNA 1: GTGAGGGTTAGGG DNA 2: CCCTAACCCTCAC | 2.58
* G7C (dsDNA) DNA 1: GTTAGGCTTAGGG DNA 2: CCCTAAGCCTAAC | 33.8
* tr13 (dsDNA) DNA 1: GTTAGGGTTAGGG DNA 2: CCCTAACCCTAAC | 0.385

// moving on: another record for Kd
Which Kd value belongs to T9G (dsDNA) DNA 1: GTTAGGGTGAGGG DNA 2: CCCTCACCCTAAC ?
47.9
